studySystem: PLK1 (polo-like kinase 1) polo-box domain (Homo sapiens, UniProt P53350)
Construct: polo-box domain (PBD), recombinant
Sequence (P53350 367-603 limits assumed): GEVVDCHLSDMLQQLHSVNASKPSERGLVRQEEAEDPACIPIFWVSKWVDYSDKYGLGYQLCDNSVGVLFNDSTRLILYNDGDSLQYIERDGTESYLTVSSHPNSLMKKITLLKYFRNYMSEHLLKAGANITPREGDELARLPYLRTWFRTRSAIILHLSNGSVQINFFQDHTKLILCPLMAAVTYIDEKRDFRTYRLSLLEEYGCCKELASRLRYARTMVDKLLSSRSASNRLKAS
testSummary: crystal structure (soaking) and competitive fluorescence polarisation with TAMRA-labelled PBIP1 phosphopeptide
reportedMetric: IC50 (µM)

[[record]]
itemsmiles = "O=C(Nc1cccc(C(C(=O)O)C(=O)O)c1)c1ccc(C(=O)c2cccc(I)c2)s1"
reportedmetric = "IC50"
experimentalvalue = 115


Recorded values, source paper PMC6828814.
